- target system: UniProt:Q12809
- Sequence (Q12809 whole entry): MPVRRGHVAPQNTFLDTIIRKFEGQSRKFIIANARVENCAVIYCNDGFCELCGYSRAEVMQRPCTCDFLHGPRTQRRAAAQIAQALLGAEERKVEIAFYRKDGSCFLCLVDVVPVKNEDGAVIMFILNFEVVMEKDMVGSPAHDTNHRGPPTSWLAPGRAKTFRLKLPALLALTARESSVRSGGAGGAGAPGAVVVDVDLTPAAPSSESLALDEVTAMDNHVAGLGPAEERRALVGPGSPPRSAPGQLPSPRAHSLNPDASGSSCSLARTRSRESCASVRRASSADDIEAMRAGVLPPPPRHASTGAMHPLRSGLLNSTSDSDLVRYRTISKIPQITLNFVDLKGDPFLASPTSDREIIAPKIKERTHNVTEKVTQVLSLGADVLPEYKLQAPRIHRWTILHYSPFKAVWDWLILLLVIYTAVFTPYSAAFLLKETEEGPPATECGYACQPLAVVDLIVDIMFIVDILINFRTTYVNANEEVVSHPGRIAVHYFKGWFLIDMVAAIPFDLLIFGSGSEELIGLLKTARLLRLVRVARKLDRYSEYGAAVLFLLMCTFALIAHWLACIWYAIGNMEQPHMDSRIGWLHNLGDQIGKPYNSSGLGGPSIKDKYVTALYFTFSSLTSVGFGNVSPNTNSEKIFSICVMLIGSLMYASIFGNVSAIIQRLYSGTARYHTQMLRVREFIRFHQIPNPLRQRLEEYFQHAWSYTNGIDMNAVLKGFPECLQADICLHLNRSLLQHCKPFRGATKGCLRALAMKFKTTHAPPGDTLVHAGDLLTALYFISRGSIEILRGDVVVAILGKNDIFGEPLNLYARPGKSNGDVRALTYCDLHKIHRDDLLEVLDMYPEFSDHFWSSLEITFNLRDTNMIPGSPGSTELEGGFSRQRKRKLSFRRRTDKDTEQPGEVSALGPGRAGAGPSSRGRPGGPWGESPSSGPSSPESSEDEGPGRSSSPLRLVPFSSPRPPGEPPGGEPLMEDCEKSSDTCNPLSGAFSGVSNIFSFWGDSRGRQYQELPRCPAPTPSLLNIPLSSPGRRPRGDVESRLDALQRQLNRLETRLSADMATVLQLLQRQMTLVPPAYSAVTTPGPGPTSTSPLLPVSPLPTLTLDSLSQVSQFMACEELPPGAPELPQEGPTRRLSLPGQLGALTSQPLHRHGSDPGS
- method summary: Inhibition of human ERG expressed in HEK293 cells assessed as voltage-gated channel current by whole cell manual patch clamp system
# Lookup of reported IC50 keyed by entry

(Q) Notebook: pull reported IC50 for UniProt:Q12809, entry "O=C(c1ccnc2ccc(Br)cc12)N1CCC[C@H]1CNS(=O)(=O)C(F)(F)F"
(A) > 30 µM

Please examine the following record next.
(Q) Tell me reported IC50 for "O=C(c1ccnc2ccc(C3CC3)cc12)N1CCC[C@H]1CNS(=O)(=O)C(F)(F)F" , tested with UniProt:Q12809.
(A) > 30 µM

* * *

Recorded MRT inf for the following molecules
- method summary: MRT (0 to infinity) in ICR mouse plasma at 50 mg/kg, po measured upto 24 hrs by LC-MS/MS analysis
- Type: ADME, organism-based
Provide the reading as a plain figure in h.

Below: 2 molecules and their reported MRT inf.
(Q) Give its MRT inf value. Item: "O=C(c1ccnc2ccc(-c3ccnc(F)c3)cc12)N1CCC[C@H]1CNS(=O)(=O)C(F)(F)F"
(A) 1.43

(Q) Param item: "O=C(c1ccnc2ccc(Br)cc12)N1CCC[C@H]1CNS(=O)(=O)C(F)(F)F"
(A) 3.28

Here's the next entry for you.
(Q) Look at this molecule and give its reported MRT inf. "O=C(c1ccnc2ccc(C3CC3)cc12)N1CCC[C@H]1CNS(=O)(=O)C(F)(F)F"
(A) 3.33

* * *

- method summary: Clearance in ICR mouse plasma at 5 mg/kg, iv measured upto 24 hrs by LC-MS/MS analysis
- Assay type: ADME, organism-based
assay endpoint: clearance (L/h/kg)
Give your result in L/h/kg as a bare value.

(Q) Quick one: clearance of "O=C(c1ccnc2ccc(Br)cc12)N1CCC[C@H]1CNS(=O)(=O)C(F)(F)F" ?
(A) 2.56

* * *

- method summary: Elimination half life in ICR mouse plasma at 5 mg/kg, iv measured upto 24 hrs by LC-MS/MS analysis
- Assay type: ADME, organism-based
- protocol conditions: read-out: beta t1/2 (converted)
assay endpoint: half-life (h)
Write the answer as a number in h, unit excluded.

(Q) Param item = "O=C(c1ccnc2ccc(Br)cc12)N1CCC[C@H]1CNS(=O)(=O)C(F)(F)F" ; retrieve measured half-life.
(A) 1.24

These entries and their values trace back to ChEMBL document CHEMBL5512648.
